target: SmCA (Schistosoma mansoni); construct: rSmCA N21-A298, signal peptide and C-terminal GPI-anchoring signal removed; Igk leader, C-terminal myc and His6 tags; secreted by CHO-S cells, IMAC; codon-optimized gene; native ~37 kDa GPI-linked glycoprotein; assay: stopped-flow CO2 hydrase assay; type: biochemical; conditions: read-out: SmCA ^b
Sequence (A0A4Y5UX87 21-298): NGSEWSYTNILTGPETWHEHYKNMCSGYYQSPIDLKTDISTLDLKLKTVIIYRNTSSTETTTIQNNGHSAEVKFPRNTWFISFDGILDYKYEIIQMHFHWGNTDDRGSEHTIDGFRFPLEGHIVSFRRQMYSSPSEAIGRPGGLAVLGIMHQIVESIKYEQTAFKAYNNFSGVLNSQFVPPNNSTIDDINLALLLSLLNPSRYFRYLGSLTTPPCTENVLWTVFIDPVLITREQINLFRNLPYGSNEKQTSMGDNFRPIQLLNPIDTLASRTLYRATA
pKi overview
Please express pKi as -log10 of the molar concentration.

Query string: So what's the measured pKi for this one? Nc1ccc(S(=O)(=O)Nc2nnc(S(N)(=O)=O)s2)cc1
Result string: 6.91

Query string: So what's the measured pKi for this one? Nc1cc(C(F)(F)F)c(S(N)(=O)=O)cc1S(N)(=O)=O
Result string: 6.74

Query string: So what's the measured pKi for this one? NS(=O)(=O)c1ccc(C(=O)O)cc1
Result string: 6.09

Query string: So what's the measured pKi for this one? NS(=O)(=O)c1ccc(CO)cc1
Result string: 5.84

Query string: So what's the measured pKi for this one? NS(=O)(=O)c1cc(Cl)cc(Cl)c1O
Result string: 5.03

Query string: So what's the measured pKi for this one? NS(=O)(=O)c1ccc(CCNS(=O)(=O)c2ccc([N+](=O)[O-])cc2CO)cc1
Result string: 6.79

Query string: So what's the measured pKi for this one? Nc1nccc(Nc2ccc(S(N)(=O)=O)cc2)n1
Result string: 5.74

Query string: So what's the measured pKi for this one? NS(=O)(=O)c1ccc(O)cc1
Result string: 6.12

Query string: So what's the measured pKi for this one? Nc1ccc(S(N)(=O)=O)cc1F
Result string: 5.50

Proceeding to the next molecule to report its pKi.
Query string: So what's the measured pKi for this one? Nc1cccc(S(N)(=O)=O)c1
Result string: 5.07

Reference source for all entries: paper PMC7084386
